Tested on: KM12 colon
Experiment: NCI tumour cell line growth inhibition, 48 h
PROPERTY_LABEL: TGI (µM)
Write the answer as a number in µM, unit excluded.

Data request: Param item = `COc1ccc(OC)c(-c2cc(-c3ccccc3)nn2-c2ccc(S(N)(=O)=O)cc2)c1` ; retrieve measured TGI.
Data returned: 21.6

Data request: Param item = `O=C1/C(=C/c2ccc([N+](=O)[O-])s2)Oc2ccccc21` ; retrieve measured TGI.
Data returned: 1.28

Data request: Param item = `C=C1C(=O)O[C@H]2[C@H]1[C@H](OC(=O)/C(C)=C\C)C[C@]1(CO1)[C@@H]1[C@H](OC(C)=O)C=C(C)[C@]21O` ; retrieve measured TGI.
Data returned: 41.4

Data request: Param item = `CCN(Cc1nc2cc(C(F)(F)F)ccc2nc1-c1ccccc1)c1ccc(OC)c(OC)c1` ; retrieve measured TGI.
Data returned: 43.6

====

Test system: HT29 colon
Assay: NCI tumour cell line growth inhibition, 48 h; in the data active means GI50 below about 0.43 µM; inactive means the rest
I would appreciate it if you answered using one of these outcomes: Y (active), N (inactive)

Data request: Name the outcome recorded for O=C1C=CN(C2OC(CO)C(O)C2O)C(=O)C1 (configuration not stated) in the assay.
Data returned: N

Data request: Name the outcome recorded for CCCC(=O)NC(c1ccc2c(c1)OCO2)c1ccc2cccnc2c1O (configuration not stated) in the assay.
Data returned: N

Data request: Name the outcome recorded for COc1ccc(C2C(c3ccccc3)C(=O)N2c2cc(OC)c(OC)c(OC)c2)cc1I (configuration not stated) in the assay.
Data returned: Y

Data request: Name the outcome recorded for `COc1cc2nc(-c3ccc(-n4cncc4-c4ccc(N)cc4)cc3)sc2c(OC)c1OC` in the assay.
Data returned: N

Data request: Name the outcome recorded for `CN(C)CCOc1nc2c3cccnc3cc(-c3cccc(Cl)c3)c2c2ncccc12` in the assay.
Data returned: N

Data request: Name the outcome recorded for `CCOC(=O)c1c(C)n(CC(C)C)c2c1cc1oc(=O)c(=O)n3cnc2c13` in the assay.
Data returned: N

Data request: Name the outcome recorded for `C[C@@H]1CC[C@H]2C(COC/C=C/COCC3=C(C(F)(F)F)O[C@@H]4O[C@@]5(C)CC[C@H]6[C@H](C)CC[C@@H]3[C@@]46OO5)=C(C(F)(F)F)O[C@@H]3O[C@@]4(C)CC[C@@H]1[C@]32OO4` in the assay.
Data returned: Y

Data request: Name the outcome recorded for `CCCC[P+](c1ccccc1)(c1ccccc1)c1ccccc1` in the assay.
Data returned: N

Data request: Name the outcome recorded for `COc1cc(-c2nc(SCC(=O)Nc3ccc(C(C)=O)cc3)[nH]c(=O)c2C#N)cc(OC)c1OC` in the assay.
Data returned: N

Data request: Name the outcome recorded for CC(C)=CCC/C(C)=C/CC/C(=C/COP(=O)(OCc1ccc([N+](=O)[O-])o1)N(C)CCCCCl)CC=C(C)C (configuration not stated) in the assay.
Data returned: N

Data request: Name the outcome recorded for `COc1cccc2c1cc([N+](=O)[O-])c1c(C(=O)O)cc3c(c12)OCO3` in the assay.
Data returned: Y

Data request: Name the outcome recorded for Cc1ccc2[nH]c(C(=O)NN3C(=O)CSC34CCCC(C)C4)c(-c3ccccc3)c2c1 (configuration not stated) in the assay.
Data returned: N

====

Please provide measured TGI for the entries that follow.
System: SN12C renal
Assay: NCI tumour cell line growth inhibition, 48 h

Data request: Give TGI (SN12C renal) of the following compound: C[C@H]1COC2(c3ccccc3)CCC(=O)N12 (some centres undefined)
Data returned: > 100 µM

Data request: Give TGI (SN12C renal) of the following compound: `CN(/N=C/c1ccnc2ccccc12)c1ccc([N+](=O)[O-])cc1[N+](=O)[O-]`
Data returned: > 100 µM

Data request: Give TGI (SN12C renal) of the following compound: `COc1ccc(/C(Cl)=C(\C=O)c2ccc(Br)cc2)cc1OC`
Data returned: > 100 µM

Data request: Give TGI (SN12C renal) of the following compound: `CC(=O)O[C@H]1C(=O)[C@@]2(C)[C@H]([C@H](OC(=O)c3ccc([N+](=O)[O-])cc3)[C@]3(O)C[C@H](OC(=O)[C@H](O)[C@@H](NC(=O)c4ccccc4)c4ccccc4)C(C)=C1C3(C)C)[C@]1(OC(C)=O)CO[C@@H]1C[C@@H]2O`
Data returned: > 25 µM
